system: HMOX1; experiment: HMOX1 Protein Assay (immunostaining of HO-1 in NHLF cells, GE InCell 1000); type: cell-based; details: Homo sapiens, fold change above DMSO treated cells, 5 μM compound, 16 h
Below, each entry is listed with its recorded fold induction at 5 µM.

// below: answered compounds
Compound	Reported value
CN(C(=O)CNC(=O)c1ccc2c(c1)nc(Nc1nc3ccc(Cl)cc3s1)n2C)C1CCOCC1	61.3
CN(C)CC(=O)NCCNC(=O)c1ccc2c(c1)nc(Nc1nc3ccc(OC(F)(F)F)cc3s1)n2C	113
Cn1c(Nc2nc3ccc(OC(F)(F)F)cc3s2)nc2cc(C(=O)NCC(=O)OC(C)(C)C)ccc21	10.1

Exam item: fold induction at 5 µM for Cn1c(Nc2nc3ccc(OC(F)(F)F)cc3s2)nc2cc(C(=O)NCCO)ccc21 ?
Marked response: 19.9

Exam item: # iterate: Cn1c(Nc2nc3ccc(Cl)cc3s2)nc2cc(C(=O)NCCCCO)ccc21
Marked response: 61.9

Exam item: Request: Cn1c(Nc2nc3ccc(OC(F)(F)F)cc3s2)nc2ccc(-c3nc[nH]n3)cc21
Marked response: 18

Exam item: Please do the same for CCOCCNC(=O)c1ccc2c(c1)nc(Nc1nc3ccc(Cl)cc3s1)n2CC as well.
Marked response: 24.4

Exam item: Try this compound too: Cn1c(Nc2nc3ccc(Cl)cc3s2)nc2cc(C(=O)NCC(C)(C)CO)ccc21
Marked response: 39.2

Exam item: What do you have for CN(C)CC(=O)NCCNC(=O)c1ccc2c(c1)nc(Nc1nc3ccc(Cl)cc3s1)n2C ?
Marked response: 27.9

Exam item: What about Cn1c(Nc2nc3ccc(OC(F)(F)F)cc3s2)nc2cc(C(=O)NCC3COCCO3)ccc21 (stereo not shown) ?
Marked response: 23.1

Exam item: Same question for Cn1c(Nc2nc3ccc(OC(F)(F)F)cc3s2)nc2cc(C(=O)NCCC(=O)OC(C)(C)C)ccc21 please.
Marked response: 5.7

Exam item: Also, Cn1c(Nc2nc3ccc(OC(F)(F)F)cc3s2)nc2cc(C(=O)NCCCCO)c(F)cc21 please.
Marked response: 49.9

Exam item: Further, for Cn1c(Nc2nc3ccc(OC(F)(F)F)cc3s2)nc2cc(C(=O)O)c(F)cc21 ?
Marked response: 33.3

###

System: HMOX1
Experiment: HMOX1 Protein Assay (immunostaining of HO-1 in NHLF cells, GE InCell 1000)
Assay type: cell-based
Details: Homo sapiens, fold change above DMSO treated cells, 5 μM compound, 16 h
Protocol: Cell Culture. Normal Human Fibroblast (NHLF), were obtained from Lonza. Cultures of cells were maintained in Fibroblast Growth Medium (FGM-2) medium supplemented with 2% fetal bovine serum (FBS), Fibroblast Growth Factor (hFGF-B) 0.5 mL, Insulin 0.5 mL, gentamicin/amphotericin-B 0.5 mL at 37° C. in a humidified atmosphere of 5% CO2. […] HMOX1 Protein Assay. […] Plate was washed 5× with 1×PBS and read at Hoechst Ex.360 Em. […] Results analyzed using GE InCell Analyzer software. […]
Where a name gives a salt, the structure may show the parent alone.
Listed here are compounds together with their documented fold induction at 5 µM.
In your answer, state the number alone without any accompanying words.

Previously resolved entries follow.
Compound	fold induction at 5 µM
CCn1c(Nc2nc3ccc(C(F)(F)F)cc3s2)nc2cc(C(=O)NCC(C)(C)OC)ccc21 [Example 184]	9.5
COCCNC(=O)c1ccc2c(c1)nc(Nc1nc3ccc(F)cc3s1)n2C [Example 125]	25.9
Cn1c(Nc2nc3ccc(Cl)cc3s2)nc2cc(C(=O)NCC(=O)N3CCNCC3)ccc21 [Example 425, hydrochloride]	20.3
Cn1c(Nc2nc3ccc(OC(F)(F)F)cc3s2)nc2cc(C(=O)N3CCCC3)ccc21 [Example 7]	5.4
Cn1c(Nc2nc3ccc(OC(F)(F)F)cc3s2)nc2cc(C(=O)NCCOCCO)cnc21 [Example 238]	33

Exam item: Endpoint output: fold induction at 5 µM of Cn1c(Nc2nc3ccc(Cl)cc3s2)nc2cc(C(=O)NCCC#N)ccc21 [Example 213] . Value?
Marked response: 48.6

Exam item: Would you mind doing CCNC(=O)c1ccc2c(c1)nc(Nc1nc3ccc(Cl)cc3s1)n2C [Example 32] as well?
Marked response: 12.6

Exam item: Would you kindly repeat that for Cn1c(Nc2nc3ccc(OC(F)(F)F)cc3s2)nc2cc(C(=O)NCCN3CCNC3=O)ccc21 [Example 330] ?
Marked response: 37.7

###

test system: HMOX1; assay: HMOX1 Protein Assay (immunostaining of HO-1 in NHLF cells, GE InCell 1000); type: cell-based; conditions: Homo sapiens, fold change above DMSO treated cells, 5 μM compound, 16 h
Counter-ions that a name gives are not always drawn.
Endpoint label: fold induction at 5 µM
// return a plain number; no unit text

Would you please look over these solved cases?
Molecule	Reported value
CNCCNC(=O)c1ccc2c(c1)nc(Nc1nc3ccc(OC(F)(F)F)cc3s1)n2C	17.5
CN(C(=O)CNC(=O)c1ccc2c(c1)nc(Nc1nc3ccc(Cl)cc3s1)n2C)C1CCCNC1 (stereo not shown) [Example 396, hydrochloride]	36

Exam item: # lookup: fold induction at 5 µM of CSCCNC(=O)c1ccc2c(c1)nc(Nc1nc3ccc(S(C)(=O)=O)cc3s1)n2C
Marked response: 5.3

Exam item: Again, but for Cn1c(Nc2nc3ccc(OC(F)(F)F)cc3s2)nc2cc(C(=O)NCCC3CCC(O)CC3)ccc21 (stereo not shown)
Marked response: 26.6

###

system: HMOX1; assay: HMOX1 Protein Assay (immunostaining of HO-1 in NHLF cells, GE InCell 1000); assay type: cell-based; conditions: Homo sapiens, fold change above DMSO treated cells, 5 μM compound, 16 h
Please use Met whenever fold induction at 5 µM is not below 40, and Not met whenever it is.

Structure notation	Class label
Cn1c(Nc2nc3ccc(OC(F)(F)F)cc3s2)nc2cc(C(=O)NCCOCCNS(C)(=O)=O)ccc21	Met
Cn1c(Nc2nc3ccc(Cl)cc3s2)nc2cc(C(=O)N3CCN(CCO)CC3)ccc21	Not met

Exam item: Evaluate CN1CCN(C(=O)CNC(=O)c2ccc3c(c2)nc(Nc2nc4ccc(OC(F)(F)F)cc4s2)n3C)CC1 : fold induction at 5 µM at minimum 40?
Marked response: Not met

Exam item: Same for Cn1c(Nc2nc3c(Cl)cccc3s2)nc2cc(C(=O)NCCOCCN)ccc21
Marked response: Not met

Exam item: Now this one: Cn1c(Nc2nc3ccc(Cl)cc3s2)nc2cc(C(=O)NCC(=O)N3CCSCC3)ccc21
Marked response: Not met

Exam item: Then what about the molecule C[C@@H](CO)CCNC(=O)c1ccc2c(c1)nc(Nc1nc3ccc(OC(F)(F)F)cc3s1)n2C ?
Marked response: Met

###

tested on: HMOX1; test: HMOX1 Protein Assay (immunostaining of HO-1 in NHLF cells, GE InCell 1000); format: cell-based; settings: Homo sapiens, fold change above DMSO treated cells, 5 μM compound, 16 h
Where a name gives a salt, the structure may show the parent alone.
Classification by fold induction at 5 µM | ranges: range A (below 20), range B (20 to below 30), range C (30 or more)

Reference set, count: 3
Compound	Class label
Cn1c(Nc2nc3ccc(Cl)cc3s2)nc2cc(C(=O)NCC(=O)N3CCC(CO)CC3)ccc21	range C
CN1CCN(C(=O)CNC(=O)c2ccc3c(c2)nc(Nc2nc4ccc(Cl)cc4s2)n3C)CC1	range B
Cn1c(Nc2nc3ccc(OC(F)(F)F)cc3s2)nc2cc(C(=O)NCCN3CCCC(O)C3)ccc21 (stereo not shown)	range A

Exam item: Input CCOCCNC(=O)c1ccc2c(c1)nc(Nc1nc3ccc(C(F)(F)F)cc3s1)n2C ; output its category
Marked response: range A

Exam item: Could you do the same for CN[C@@H]1CCN(C(=O)CNC(=O)c2ccc3c(c2)nc(Nc2nc4ccc(OC(F)(F)F)cc4s2)n3C)C1 [Example 413, hydrochloride] , please?
Marked response: range C

Exam item: Also COCCNC(=O)c1ccc2c(c1)nc(Nc1nc3cc(OC(F)(F)F)ccc3s1)n2C , if possible.
Marked response: range B

Exam item: Now consider CNCCn1c(Nc2nc3ccc(Cl)cc3s2)nc2cc(C(=O)NCC(=O)N(C)C)ccc21 [Example 367, hydrochloride] and answer again.
Marked response: range B

Exam item: Query CCNC(=O)c1cc2nc(Nc3nc4ccc(OC(F)(F)F)cc4s3)n(C)c2cc1OC next
Marked response: range A

Exam item: Item: Cn1c(Nc2nc3ccc(OC(F)(F)F)cc3s2)nc2cc(C(=O)NCC3CC3)ccc21
Marked response: range A

Exam item: What do we get for COCCn1c(Nc2nc3ccc(Cl)cc3s2)nc2cc(C(=O)NCC(=O)N3CCN(C)CC3)ccc21 ?
Marked response: range B

Exam item: Try COC(=O)c1ccc2c(c1)nc(Nc1nc3ccc(S(C)(=O)=O)cc3s1)n2C next.
Marked response: range B

Exam item: Can you handle CCn1c(Nc2nc3ccc(OC(F)(F)F)cc3s2)nc2cc(C(=O)OC)ccc21 next?
Marked response: range A

Exam item: Next entry: Cn1c(Nc2nc3ccc(Cl)cc3s2)nc2cc(C(=O)NCC(=O)NC3CCOCC3)ccc21
Marked response: range B

Exam item: One more compound: Cn1c(Nc2nc3ccc(OC(F)(F)F)cc3s2)nc2cc(C(=O)NCC(C)(C)CO)ccc21
Marked response: range B

Exam item: Another compound: CN(C)C(=O)C1(NC(=O)c2ccc3c(c2)nc(Nc2nc4ccc(OC(F)(F)F)cc4s2)n3C)CC1
Marked response: range C
